Test system: Normal Kunming (KM) mice
Assay: multiple OGTT (mOGTT): hypoglycemic duration after a single administration
Type: in vivo
Details: single injection at the same dose (1.126 nmol), subcutaneous
Positions of bridges follow the written chain, without caps; N, C: chain ends. Non-standard residues stand in square brackets, D forms with d. Chains are numbered I, II in the order given. No end group written: not given here. βAla = NCCC(=O)O
EXPERIMENTAL ENDPOINT: Hypoglycemic duration (days)
Dear colleague, please return just the value in days, with no unit written.

Guide cases for Hypoglycemic duration, answers given:
>  <SUBSTANCE>
2G2 series 19: disulfide-linked homodimer of monomer SEQ ID NO: 19 (chain 1 H[βAla]EGTFTSDVCSYLEGQAAKEFIAWLVR[βAla]R; chain 2 H[βAla]EGTFTSDVCSYLEGQAAKEFIAWLVR[βAla]R; disulfide I:11-II:11 (inferred); not fully specified (C-terminus))

>  <EXPERIMENTAL ENDPOINT>
Hypoglycemic duration

>  <OBSERVED RESULT>
3

$$$$
>  <SUBSTANCE>
2G3 series 23: disulfide-linked homodimer of monomer SEQ ID NO: 23 (HAEGTFTSDVSCYLEGQAAXEFIAWLVRGRG; disulfide-linked homodimer; Sequence is synthesized; (20)..(20) Xaa is 26Lys[N-e-(N-a-oleoyl-L-g-glutamyl)]; (31)..(31) N-terminal)

>  <EXPERIMENTAL ENDPOINT>
Hypoglycemic duration

>  <OBSERVED RESULT>
17

$$$$
>  <SUBSTANCE>
2G2 series 9: disulfide-linked homodimer of monomer SEQ ID NO: 9 (HAEGTFTSDVCSYLEGQAAXEFIAWLVRGRG; disulfide-linked homodimer; Sequence is synthesized; (20)..(20) Xaa is 26Lys[N-e-(N-a-oleoyl-L-g-glutamyl)]; (31)..(1) C-terminal)

>  <EXPERIMENTAL ENDPOINT>
Hypoglycemic duration

>  <OBSERVED RESULT>
5

$$$$
>  <SUBSTANCE>
2G3 series 22: disulfide-linked homodimer of monomer SEQ ID NO: 22 (HAEGTFTSDVSCYLEGQAAXEFIAWLVRGRG; not fully specified; disulfide-linked homodimer; Sequence is synthesized; (20)..(20) Xaa is 26Lys[N-e-(N-a-palmitoyl-L-g-glutamyl)]; (31)..(31) N-terminal)

>  <EXPERIMENTAL ENDPOINT>
Hypoglycemic duration

>  <OBSERVED RESULT>
16

$$$$
>  <SUBSTANCE>
2G5 series 41: disulfide-linked homodimer of monomer SEQ ID NO: 41 (HAEGTFTSDVSCYLEGQAAXEFIAWLVXGRG; disulfide-linked homodimer; Sequence is synthesized; (20)..(20) Xaa is 26Lys[N-e-(N-a-palmitoyl-L-g-glutamyl)]; (28)..(28) Xaa is 26Lys[N-e-(N-a-palmitoyl-L-g-glutamyl)]; (31)..(31) N-terminal)

>  <EXPERIMENTAL ENDPOINT>
Hypoglycemic duration

>  <OBSERVED RESULT>
5

$$$$

Reported Hypoglycemic duration for Normal Kunming (KM) mice, given 2G8 series 66: disulfide-linked homodimer of monomer SEQ ID NO: 66 (HXEGTFTCDVSSYLEGQAAXEFIAWLVRGRG; disulfide-linked homodimer; Sequence is synthesized; (2)..(2) Xaa is bAib; (20)..(20) Xaa is 26Lys[N-e-(N-a-oleoyl-L-g-glutamyl)]; (31)..(31) N-terminal) ?
8

All values here come from patent US20240150423A1.
